Source of measurements: the supplement of paper PMC12350171

Test system: S. enterica typhimurium tolC KO
assay-summary: growth AUC normalised to DMSO control (median) (fraction of control); higher = less growth inhibition, active = hit call of the paper;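 active = normalised median growth AUC below 0.1 of DMSO control; inactive = AUC 0.1 or higher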;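 note: active when median AUC fell below 0.1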
settings: 20 µM
Where a name gives a salt, the structure may show the parent alone.
Parameter call: string, one of True for active, False for inactive

Here are 3 molecules together with their reported answers.
molecule="CN(C)CCN(Cc1ccccc1)c1ccccn1 [Tripelennamine hydrochloride]" experimental_target="S. enterica typhimurium tolC KO" group=False
molecule="CC(C)(C)C(O)/C=C/c1ccc2c(c1)OCO2 (stereo not given)" experimental_target="S. enterica typhimurium tolC KO" group=False
molecule=CCNC(=O)CCC/C=C\C[C@@H]1[C@@H](/C=C/[C@@H](O)CCc2ccccc2)[C@H](O)C[C@@H]1O experimental_target="S. enterica typhimurium tolC KO" group=False

## Input Given NS(=O)(=O)c1cc(Cl)c(Cl)c(S(N)(=O)=O)c1 [Dichlorphenamide] , state the outcome it received in this test.
## Output False

## Input Given `O=C1c2ccccc2C(=O)C1c1ccccc1` , state the outcome it received in this test.
## Output False

## Input Given C=C1c2cccc(O)c2C(O)=C2C(=O)[C@]3(O)C(O)=C(C(N)=O)C(=O)[C@@H](N(C)C)[C@@H]3[C@@H](O)[C@H]12 [Methacycline hydrochloride] , state the outcome it received in this test.
## Output True

====

Tested on: P. vulgatus WT
assay-summary: growth AUC normalised to DMSO control (median) (fraction of control); higher = less growth inhibition, active = hit call of the paper;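 active = normalised median growth AUC below 0.1 of DMSO control; inactive = AUC 0.1 or higher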
settings: 20 µM
Structures can show the parent of a compound that is named as a salt.
Parameter call: string, one of active, inactive

Here are 8 compounds together with their reported answers.
compound="CCCCC(=O)N(Cc1ccc(-c2ccccc2-c2nnn[nH]2)cc1)[C@H](C(=O)O)C(C)C [Valsartan]" group=inactive
compound="Cc1cccc(C)c1NC(=O)CN1CCN(CCCC(c2ccc(F)cc2)c2ccc(F)cc2)CC1 [Lidoflazine]" group=inactive
compound="CCN(CC)CCc1nc(-c2ccccc2)no1 [Oxolamine citrate salt]" group=inactive
compound="O=C(c1cc(O)c(O)c(O)c1)c1ccc(O)c(O)c1O [Exifone]" group=inactive
compound="O=C(OCCOCCO)c1ccccc1Nc1cccc(C(F)(F)F)c1 [Etofenamate]" group=inactive
compound="CCN1CCN(C(=O)N[C@@H](C(=O)N[C@@H]2C(=O)N3[C@@H]2SC(C)(C)[C@@H]3C(=O)O)c2ccccc2)C(=O)C1=O [Piperacillin sodium salt]" group=active
compound="CC(=O)N(CC(O)CO)c1c(I)c(C(=O)NCC(O)CO)c(I)c(C(=O)NCC(O)CO)c1I (stereo not drawn) [Iohexol]" group=inactive
compound="CC(C[N+](C)(C)C)OC(N)=O (stereo not drawn) [Bethanechol chloride]" group=inactive

## Input Given CC1(C)S[C@@H]2[C@H](NC(=O)[C@H](N)c3ccc(O)cc3)C(=O)N2[C@H]1C(=O)O [Amoxicillin] , state the outcome it received in this test.
## Output active

## Input Given Nc1ncnc2c1ncn2C1OC(COP(=O)(O)O)C(O)C1O (stereo not drawn) [Adenosine 5'-monophosphate monohydrate] , state the outcome it received in this test.
## Output inactive

====

Test system: S. enterica typhimurium WT
assay-summary: growth AUC normalised to DMSO control (median) (fraction of control); higher = less growth inhibition, active = hit call of the paper
settings: 20 µM
property: growth AUC normalised to DMSO control

Sample records with growth AUC normalised to DMSO control:
compound="O=C1c2ccccc2S(=O)(=O)N1CCCCN1CCN(c2ncccn2)CC1 [Ipsapirone]" property="growth AUC normalised to DMSO control" test_value="0.989 (inactive)"
compound="COc1cc([S+](C)[O-])ccc1-c1nc2cccnc2[nH]1 (centres undefined) [Sulmazole]" property="growth AUC normalised to DMSO control" test_value="0.999 (inactive)"

For the 2 compounds below, give their growth AUC normalised to DMSO control values.
1. NCCCCCC(=O)O [Aminocaproic acid]
2. CCCCc1nc(Cl)c(CO)n1Cc1ccc(-c2ccccc2-c2nnn[nH]2)cc1 [Losartan]

## Output
["1.02 (inactive)", "1 (inactive)"]

====

Test system: S. enterica typhimurium tolC KO
assay-summary: growth AUC normalised to DMSO control (median) (fraction of control); higher = less growth inhibition, active = hit call of the paper
settings: 20 µM
Counter-ions that a name gives are not always drawn.
property: growth AUC normalised to DMSO control
Numbers only.

Sample records with growth AUC normalised to DMSO control:
molecule="NCCCC(O)(P(=O)(O)O)P(=O)(O)O [Alendronate sodium]" test_value=0.99
molecule="CNC(=C[N+](=O)[O-])NCCSCc1ccc(CN(C)C)o1 [Ranitidine hydrochloride]" test_value=1.01
molecule="Clc1ccc(COC(Cn2ccnc2)c2ccc(Cl)cc2Cl)c(Cl)c1 (stereo not drawn)" test_value=0.98
molecule="C=CC(N)CCC(=O)O (stereo not drawn) [Vigabatrin hydrochloride]" test_value=0.992
molecule="COc1ccc2c3c1O[C@H]1C[C@@H](O)C=C[C@@]31CCN(C)C2 [Galanthamine hydrobromide]" test_value=0.995
molecule=O=c1cc(-c2ccc(O)c(O)c2)oc2cc(O)cc(O)c12 test_value=0.878
molecule="C[N+]1(CCCCC[N+]2(C)CCCC2)CCCC1 [Pentolinium bitartrate]" test_value=0.996
molecule="Nc1cccc2c1C(=O)N(C1CCC(=O)NC1=O)C2=O (stereo not drawn) [Pomalidomide]" test_value=0.983
molecule="COC(=O)C1=C(C)NC(C)=C(C(=O)OC2CCCN(Cc3ccccc3)C2)C1c1cccc([N+](=O)[O-])c1 (stereo not drawn) [Benidipine hydrochloride]" test_value=0.961
molecule="CCCCc1oc2ccc(NS(C)(=O)=O)cc2c1C(=O)c1ccc(OCCCN(CCCC)CCCC)cc1 [Dronedarone hydrochloride]" test_value=1

For the 7 molecules below, give their growth AUC normalised to DMSO control values.
1. O=C1OC(c2ccc(O)cc2)(c2ccc(O)cc2)c2ccccc21
2. CC1=C(CC(=O)O)c2cc(F)ccc2/C1=C\c1ccc([S+](C)[O-])cc1 (stereo not drawn)
3. COc1ccc(C(=O)CC(=O)c2ccc(C(C)(C)C)cc2)cc1
4. CC(C)=CCC1C(=O)N(c2ccccc2)N(c2ccccc2)C1=O
5. CCC(=O)O[C@]1(C(=O)CCl)[C@@H](C)C[C@H]2[C@@H]3CCC4=CC(=O)C=C[C@]4(C)[C@@]3(F)[C@@H](O)C[C@@]21C [Clobetasol propionate]
6. CCn1cc(C(=O)O)c(=O)c2cc(F)c(N3CCNCC3)cc21
7. CCOC(=O)C1=C(C)NC(C)=C(C(=O)OC)C1c1cccc(Cl)c1Cl (stereo not drawn)

## Output
1. 0.524
2. 0.984
3. 0.976
4. 0.983
5. 0.927
6. 0.0069
7. 1

## Input Look up growth AUC normalised to DMSO control for this molecule: `CCn1cc(C(=O)O)c(=O)c2cc(F)c(N3CCNCC3)nc21`
## Output 0.00708

====

Tested on: S. enterica typhimurium tolC KO
assay-summary: growth AUC normalised to DMSO control (median) (fraction of control); higher = less growth inhibition, active = hit call of the paper
settings: 20 µM
Counter-ions that a name gives are not always drawn.
property: growth AUC normalised to DMSO control
One number for each entry.

Sample records with growth AUC normalised to DMSO control:
compound=O=C(O)CCC(=O)Nc1ccc(S(=O)(=O)Nc2nccs2)cc1 test_value=0.994
compound="CN1CCN2c3ccccc3Cc3ccccc3C2C1 (stereo unspecified) [Mianserine hydrochloride]" test_value=1
compound=S=c1[nH]cnc2nc[nH]c12 test_value=0.998
compound="O=C(O)/C=C/c1ccc(Cn2ccnc2)cc1 [Ozagrel hydrochloride]" test_value=1

For the 2 compounds below, give their growth AUC normalised to DMSO control values.
1. Nc1nc(N)c2nc(-c3ccccc3)c(N)nc2n1
2. COc1ccc(-c2ccc3cc(C(=O)O)ccc3c2)cc1C12CC3CC(CC(C3)C1)C2

## Output
[0.939, 1.01]

====

Please respond with reported growth AUC normalised to DMSO control for every item in the list.
System: S. enterica typhimurium WT
assay-summary: growth AUC normalised to DMSO control (median) (fraction of control); higher = less growth inhibition, active = hit call of the paper
settings: 20 µM
Numbers only.

For the 2 molecules below, give their growth AUC normalised to DMSO control values.
1. COc1c(O)cc2c(c1O)[C@@H]1O[C@H](CO)[C@@H](O)[C@H](O)[C@H]1OC2=O
2. Nc1ccc(C(=O)O)c(O)c1

## Output
1.02
1.01

For the 2 molecules below, give their growth AUC normalised to DMSO control values.
1. CN(C)CCOC(c1ccccc1)c1ccccc1.Cn1c(=O)c2[nH]c(Cl)nc2n(C)c1=O [Dimenhydrinate]
2. Nc1ccc2cc3ccc(N)cc3nc2c1 [Proflavine hemisulfate]

## Output
1: 0.988; 2: 0.955

====

System: S. enterica typhimurium WT
assay-summary: growth AUC normalised to DMSO control (median) (fraction of control); higher = less growth inhibition, active = hit call of the paper
settings: 20 µM
Counter-ions that a name gives are not always drawn.
property: growth AUC normalised to DMSO control

Sample records with growth AUC normalised to DMSO control:
compound="O=C(O)c1cn(C2CC2)c2cc(N3CCNCC3)c(F)cc2c1=O [Ciprofloxacin hydrochloride monohydrate]" property="growth AUC normalised to DMSO control" test_value="0.00642 (active)"
compound="CC(C)NNC(=O)c1ccncc1 [Iproniazide phosphate]" property="growth AUC normalised to DMSO control" test_value="1.02 (inactive)"

## Input Look up growth AUC normalised to DMSO control for this compound: COC(=O)C1=C(C)NC(C)=C(C(=O)OCC(C)C)C1c1ccccc1[N+](=O)[O-] (stereo not drawn)
## Output 1.01 (inactive)
